This collection of values is drawn from patent US20040072206A1.

# assayed-system: B. subtilis RNAP (Bacillus subtilis, UniProt P37870+P37871)
# Construct: endogenous in cells; host or cells: Bacillus subtilis strain PL37 (built from strain 168)
# Sequence (P37871 whole entry): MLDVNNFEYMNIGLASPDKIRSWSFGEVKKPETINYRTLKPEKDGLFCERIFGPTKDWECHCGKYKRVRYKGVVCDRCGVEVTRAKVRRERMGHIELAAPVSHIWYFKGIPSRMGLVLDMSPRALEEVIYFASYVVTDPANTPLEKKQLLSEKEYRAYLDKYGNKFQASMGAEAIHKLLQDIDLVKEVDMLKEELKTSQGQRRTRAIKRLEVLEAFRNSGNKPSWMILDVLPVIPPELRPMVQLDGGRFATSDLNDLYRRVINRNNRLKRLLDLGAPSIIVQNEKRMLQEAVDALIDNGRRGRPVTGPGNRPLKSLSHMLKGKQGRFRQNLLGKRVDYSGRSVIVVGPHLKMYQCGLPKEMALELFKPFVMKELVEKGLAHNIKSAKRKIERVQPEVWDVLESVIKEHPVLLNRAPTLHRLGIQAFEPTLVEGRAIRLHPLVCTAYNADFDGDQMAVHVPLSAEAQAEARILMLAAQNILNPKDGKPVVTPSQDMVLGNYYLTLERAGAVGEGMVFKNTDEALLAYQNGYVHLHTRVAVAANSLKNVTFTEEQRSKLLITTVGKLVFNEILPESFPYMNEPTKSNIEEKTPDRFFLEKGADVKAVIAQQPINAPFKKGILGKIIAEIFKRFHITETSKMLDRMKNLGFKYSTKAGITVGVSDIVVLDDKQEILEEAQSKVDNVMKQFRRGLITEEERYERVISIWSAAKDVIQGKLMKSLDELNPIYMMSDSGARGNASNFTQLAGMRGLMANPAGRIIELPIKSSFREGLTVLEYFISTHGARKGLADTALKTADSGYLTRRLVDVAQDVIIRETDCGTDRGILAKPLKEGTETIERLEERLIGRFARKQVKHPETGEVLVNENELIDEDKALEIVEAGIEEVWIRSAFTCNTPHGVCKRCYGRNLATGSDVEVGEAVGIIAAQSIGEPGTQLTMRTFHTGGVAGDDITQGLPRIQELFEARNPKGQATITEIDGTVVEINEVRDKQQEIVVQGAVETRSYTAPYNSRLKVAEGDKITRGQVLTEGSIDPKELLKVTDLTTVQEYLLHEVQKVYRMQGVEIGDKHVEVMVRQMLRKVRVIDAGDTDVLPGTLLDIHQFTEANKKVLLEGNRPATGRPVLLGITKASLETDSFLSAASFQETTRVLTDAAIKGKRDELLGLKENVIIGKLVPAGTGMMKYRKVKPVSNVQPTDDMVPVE
# Sequence (P20429 whole entry, further chain): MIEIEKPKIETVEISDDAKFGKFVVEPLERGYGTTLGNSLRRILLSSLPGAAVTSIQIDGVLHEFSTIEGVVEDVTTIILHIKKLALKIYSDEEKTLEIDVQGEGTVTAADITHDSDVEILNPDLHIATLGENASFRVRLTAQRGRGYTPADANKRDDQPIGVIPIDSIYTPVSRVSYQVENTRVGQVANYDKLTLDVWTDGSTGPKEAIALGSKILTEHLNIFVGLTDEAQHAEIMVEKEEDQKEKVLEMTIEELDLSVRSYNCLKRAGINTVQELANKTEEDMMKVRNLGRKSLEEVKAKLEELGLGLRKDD
# Sequence (O35011 whole entry, further chain): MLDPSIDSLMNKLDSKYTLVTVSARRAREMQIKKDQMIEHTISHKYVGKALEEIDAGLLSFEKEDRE
# Sequence (P37870 whole entry): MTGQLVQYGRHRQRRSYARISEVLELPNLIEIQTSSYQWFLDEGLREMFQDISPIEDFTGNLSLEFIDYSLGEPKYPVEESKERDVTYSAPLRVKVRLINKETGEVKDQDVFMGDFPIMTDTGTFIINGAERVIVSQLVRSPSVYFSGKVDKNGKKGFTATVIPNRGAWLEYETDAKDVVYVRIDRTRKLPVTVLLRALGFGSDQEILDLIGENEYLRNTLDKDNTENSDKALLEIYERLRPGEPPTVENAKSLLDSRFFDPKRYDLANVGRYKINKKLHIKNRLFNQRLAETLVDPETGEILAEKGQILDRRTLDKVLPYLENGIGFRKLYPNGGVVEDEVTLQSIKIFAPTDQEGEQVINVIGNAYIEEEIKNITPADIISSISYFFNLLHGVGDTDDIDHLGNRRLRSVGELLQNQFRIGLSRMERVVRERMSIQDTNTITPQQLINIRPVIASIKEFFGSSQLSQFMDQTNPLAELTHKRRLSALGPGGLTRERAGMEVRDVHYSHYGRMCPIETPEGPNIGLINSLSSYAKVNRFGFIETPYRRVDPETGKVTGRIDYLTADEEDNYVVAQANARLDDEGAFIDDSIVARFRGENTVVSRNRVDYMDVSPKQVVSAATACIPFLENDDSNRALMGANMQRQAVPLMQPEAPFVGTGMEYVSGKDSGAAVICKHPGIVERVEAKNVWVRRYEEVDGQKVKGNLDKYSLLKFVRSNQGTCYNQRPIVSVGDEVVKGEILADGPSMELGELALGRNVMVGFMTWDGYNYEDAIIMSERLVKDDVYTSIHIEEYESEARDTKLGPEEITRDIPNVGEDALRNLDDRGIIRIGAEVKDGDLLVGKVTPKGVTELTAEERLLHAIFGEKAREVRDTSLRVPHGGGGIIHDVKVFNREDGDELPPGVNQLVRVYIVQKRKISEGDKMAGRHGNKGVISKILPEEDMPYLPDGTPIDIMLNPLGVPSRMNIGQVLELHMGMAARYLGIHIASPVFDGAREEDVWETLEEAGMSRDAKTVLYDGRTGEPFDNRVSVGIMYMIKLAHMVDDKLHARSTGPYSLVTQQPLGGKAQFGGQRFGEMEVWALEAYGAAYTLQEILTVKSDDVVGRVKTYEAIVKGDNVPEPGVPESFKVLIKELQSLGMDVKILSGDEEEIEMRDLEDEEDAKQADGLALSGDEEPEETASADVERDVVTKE
# assay-summary: Dual reporter assay in strain PL37: test reporter Pxyl-lacZ and ratio of control to test reporter (RES:MUG)
# Assay type: cell-based
# conditions-used: strain PL37; Dilution Number 10; DMSO control […]
endpoint-name: Ratio of the control reporter (RES): test reporter (MUG)

- CC1(C)S[C@@H]2[C@H](NC(=O)[C@H](N)c3ccccc3)C(=O)N2[C@H]1C(=O)O [Ampicillin]: 1.02
- CN[C@H](CC(C)C)C(=O)N[C@H]1C(=O)N[C@@H](CC(N)=O)C(=O)N[C@H]2C(=O)N[C@H]3C(=O)N[C@H](C(=O)N[C@H](C(=O)O)c4cc(O)cc(O)c4-c4cc3ccc4O)[C@H](O)c3ccc(c(Cl)c3)Oc3cc2cc(c3O[C@@H]2O[C@H](CO)[C@@H](O)[C@H](O)[C@H]2O[C@H]2C[C@](C)(N)[C@H](O)[C@H](C)O2)Oc2ccc(cc2Cl)[C@H]1O [Vancomycin]: 1.11

---

Ratio of the control reporter (RES): test reporter (MUG): recorded values
# assayed-system: B. subtilis RNAP (Bacillus subtilis, UniProt P37870+P37871)
# Construct: endogenous in cells; host or cells: Bacillus subtilis strain PL37 (built from strain 168)
# assay-summary: Dual reporter assay in strain PL37: test reporter Pxyl-lacZ and ratio of control to test reporter (RES:MUG)
# Format: cell-based
# conditions-used: strain PL37; Dilution Number 9; DMSO control […]
endpoint-name: Ratio of the control reporter (RES): test reporter (MUG)

* CN[C@@H]1[C@H](O)[C@H](NC)[C@H]2O[C@@]3(O)C(=O)C[C@@H](C)O[C@H]3O[C@@H]2[C@H]1O [Spectinomycin] | 1.10
* CCC[C@@H]1C[C@@H](C(=O)N[C@@H]([C@H]2O[C@H](SC)[C@H](O)[C@@H](O)[C@H]2O)[C@@H](C)O)N(C)C1 [Lincomycin] | 1.02
* CC(O)C(=O)O.COc1cc(Cc2cnc(N)nc2N)cc(OC)c1OC [Trimethoprim Lactate] | 0.63
* CN[C@H](CC(C)C)C(=O)N[C@H]1C(=O)N[C@@H](CC(N)=O)C(=O)N[C@H]2C(=O)N[C@H]3C(=O)N[C@H](C(=O)N[C@H](C(=O)O)c4cc(O)cc(O)c4-c4cc3ccc4O)[C@H](O)c3ccc(c(Cl)c3)Oc3cc2cc(c3O[C@@H]2O[C@H](CO)[C@@H](O)[C@H](O)[C@H]2O[C@H]2C[C@](C)(N)[C@H](O)[C@H](C)O2)Oc2ccc(cc2Cl)[C@H]1O [Vancomycin] | 1.07
* CCn1cc(C(=O)O)c(=O)c2cc3c(cc21)OCO3 [Oxolinic Acid] | 1.05
* CC1(C)S[C@@H]2[C@H](NC(=O)Cc3ccccc3)C(=O)N2[C@H]1C(=O)O [Penicillin G] | 1.01
* CO[C@@H]1[C@@H](OC(N)=O)[C@@H](O)[C@H](Oc2ccc3c(O)c(NC(=O)c4ccc(O)c(CC=C(C)C)c4)c(=O)oc3c2C)OC1(C)C [Novobiocin] | 1.14
* CCn1cc(C(=O)O)c(=O)c2ccc(C)nc21 [Nalidixic Acid] | 1.26
* O=C(N[C@H](CO)[C@H](O)c1ccc([N+](=O)[O-])cc1)C(Cl)Cl [Chloramphenicol] | 1.14
* CC1(C)S[C@@H]2[C@H](NC(=O)C(C(=O)O)c3ccccc3)C(=O)N2[C@H]1C(=O)O (some centres unmarked) [Carbenicillin] | 1.00
* CC[C@@]1([C@@H]2O[C@@H]([C@H]3O[C@@](O)(CO)[C@H](C)C[C@@H]3C)C[C@@H]2C)CC[C@H]([C@]2(C)CC[C@]3(C[C@H](O)[C@@H](C)[C@@H]([C@@H](C)[C@@H](OC)[C@H](C)C(=O)O)O3)O2)O1 [Monensin] | 1.54

---

# assayed-system: B. subtilis RNAP (Bacillus subtilis, UniProt P37870+P37871)
# Construct: endogenous in cells; host or cells: Bacillus subtilis strain PL37 (built from strain 168)
# assay-summary: Dual reporter assay in strain PL37: test reporter Pxyl-lacZ and ratio of control to test reporter (RES:MUG)
# Type: cell-based
# conditions-used: strain PL37; Dilution Number 2; DMSO control […]
Positions of bridges follow the written chain, without caps; N, C: chain ends. Non-standard residues stand in square brackets, D forms with d. Residues, ends and D or L forms follow the SMILES beside them. *: point of attachment. Ileψ(thiazoline)Cys = CC[C@H](C)[C@H](N)C1=N[C@H](C(=O)*)CS1; dOrn = NCCC[C@@H](N)C(=O)O
Ratio of the control reporter (RES): test reporter (MUG): recorded values
endpoint-name: Ratio of the control reporter (RES): test reporter (MUG)

- CC1=C(C(=O)O)N2C(=O)[C@@H](NC(=O)[C@H](N)c3ccccc3)[C@H]2SC1: 1.78
- CC1(C)S[C@@H]2[C@H](NC(=O)C(C(=O)O)c3ccccc3)C(=O)N2[C@H]1C(=O)O (stereo partly shown): 1.49
- CN[C@@H]1[C@H](O)[C@H](NC)[C@H]2O[C@@]3(O)C(=O)C[C@@H](C)O[C@H]3O[C@@H]2[C@H]1O: 1.23
- CCC[C@@H]1C[C@@H](C(=O)N[C@@H]([C@H]2O[C@H](SC)[C@H](O)[C@@H](O)[C@H]2O)[C@@H](C)O)N(C)C1: 1.20
- CC[C@H](C)[C@H](N)C1=N[C@H](C(=O)N[C@@H](CC(C)C)C(=O)N[C@H](CCC(=O)O)C(=O)N[C@H](C(=O)N[C@H]2CCCCNC(=O)[C@H](CC(N)=O)NC(=O)[C@@H](CC(=O)O)NC(=O)[C@H](Cc3cnc[nH]3)NC(=O)[C@@H](Cc3ccccc3)NC(=O)[C@H]([C@@H](C)CC)NC(=O)[C@@H](CCCN)NC2=O)[C@@H](C)CC)CS1 [Bacitracin] ({Ileψ(thiazoline)Cys}-L[dE]IK[dOrn]I[dF]H[dD]N; lactam 4-C): 1.15
- O=C(N[C@H](CO)[C@H](O)c1ccc([N+](=O)[O-])cc1)C(Cl)Cl: 1.22
- CC1(C)S[C@@H]2[C@H](NC(=O)Cc3ccccc3)C(=O)N2[C@H]1C(=O)O: 1.72

---

Ratio of the control reporter (RES): test reporter (MUG): recorded values
# assayed-system: B. subtilis RNAP (Bacillus subtilis, UniProt P37870+P37871)
# Construct: endogenous in cells; host or cells: Bacillus subtilis strain PL37 (built from strain 168)
# assay-summary: Dual reporter assay in strain PL37: test reporter Pxyl-lacZ and ratio of control to test reporter (RES:MUG)
# Type: cell-based
# conditions-used: strain PL37; Dilution Number 3; DMSO control […]
# Experimental: 20 known antibiotics were tested at a range of concentrations to determine their effect on test and control reporters within the assay. […] Cultures of PL37 grown in PAB, were diluted to 0.05 A600 and then grown for 2 hours at 37° C. in PAB supplemented with 0.02 mM IPTG. Cells were pelleted and frozen. They were later resuspended and diluted in PAB supplemented with 0.02 mM IPTG and grown at 37° C. to early exponential phase. […]
Positions of bridges follow the written chain, without caps; N, C: chain ends. Non-standard residues stand in square brackets, D forms with d. Residues, ends and D or L forms follow the SMILES beside them. *: point of attachment. Ileψ(thiazoline)Cys = CC[C@H](C)[C@H](N)C1=N[C@H](C(=O)*)CS1; dOrn = NCCC[C@@H](N)C(=O)O
endpoint-name: Ratio of the control reporter (RES): test reporter (MUG)

* CC[C@@]1([C@@H]2O[C@@H]([C@H]3O[C@@](O)(CO)[C@H](C)C[C@@H]3C)C[C@@H]2C)CC[C@H]([C@]2(C)CC[C@]3(C[C@H](O)[C@@H](C)[C@@H]([C@@H](C)[C@@H](OC)[C@H](C)C(=O)O)O3)O2)O1 | 1.45
* CC1=C(C(=O)O)N2C(=O)[C@@H](NC(=O)[C@H](N)c3ccccc3)[C@H]2SC1 | 1.76
* CNC(=O)[C@@H](C)[C@H]1C(=O)/C(=C(O)/C=C/C(C)=C/[C@@H](C)[C@H]2O[C@@]3(C)O[C@H](C=C[C@@]34CO4)[C@@H]2C)C(=O)N1[C@@H]1CC[C@H](O)[C@H](C)O1 | 14.07
* CO[C@@H]1[C@@H](OC(N)=O)[C@@H](O)[C@H](Oc2ccc3c(O)c(NC(=O)c4ccc(O)c(CC=C(C)C)c4)c(=O)oc3c2C)OC1(C)C | 1.66
* CN[C@@H]1[C@H](O)[C@H](NC)[C@H]2O[C@@]3(O)C(=O)C[C@@H](C)O[C@H]3O[C@@H]2[C@H]1O | 1.21
* CC(O)C(=O)O.COc1cc(Cc2cnc(N)nc2N)cc(OC)c1OC [Trimethoprim Lactate] | 0.54
* CC[C@H](C)[C@H](N)C1=N[C@H](C(=O)N[C@@H](CC(C)C)C(=O)N[C@H](CCC(=O)O)C(=O)N[C@H](C(=O)N[C@H]2CCCCNC(=O)[C@H](CC(N)=O)NC(=O)[C@@H](CC(=O)O)NC(=O)[C@H](Cc3cnc[nH]3)NC(=O)[C@@H](Cc3ccccc3)NC(=O)[C@H]([C@@H](C)CC)NC(=O)[C@@H](CCCN)NC2=O)[C@@H](C)CC)CS1 [Bacitracin] ({Ileψ(thiazoline)Cys}-L[dE]IK[dOrn]I[dF]H[dD]N; lactam 4-C) | 1.12
* CCn1cc(C(=O)O)c(=O)c2ccc(C)nc21 | 1.74
* CCC[C@@H]1C[C@@H](C(=O)N[C@@H]([C@H]2O[C@H](SC)[C@H](O)[C@@H](O)[C@H]2O)[C@@H](C)O)N(C)C1 | 1.29
* CC1(C)S[C@@H]2[C@H](NC(=O)Cc3ccccc3)C(=O)N2[C@H]1C(=O)O | 1.70
* O=C(N[C@H](CO)[C@H](O)c1ccc([N+](=O)[O-])cc1)C(Cl)Cl | 1.27
* CC1(C)S[C@@H]2[C@H](NC(=O)C(C(=O)O)c3ccccc3)C(=O)N2[C@H]1C(=O)O (stereo partly shown) | 1.59
* CCn1cc(C(=O)O)c(=O)c2cc3c(cc21)OCO3 | 1.63
